Target: T1, hIL-18Rα ECD-Fc fusion protein (human, UniProt Q13478 22-329)
T1 construct: extracellular domain; captured on Protein A sensor
T1 sequence (looked up): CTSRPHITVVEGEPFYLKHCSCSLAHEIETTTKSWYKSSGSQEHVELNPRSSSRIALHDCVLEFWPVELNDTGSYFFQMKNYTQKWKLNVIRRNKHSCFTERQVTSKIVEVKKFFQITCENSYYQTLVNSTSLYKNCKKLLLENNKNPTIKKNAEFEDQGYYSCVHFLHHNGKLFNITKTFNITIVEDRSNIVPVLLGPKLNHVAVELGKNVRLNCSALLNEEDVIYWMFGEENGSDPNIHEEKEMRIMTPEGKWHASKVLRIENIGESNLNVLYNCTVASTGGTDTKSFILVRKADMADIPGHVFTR
Assay: BLI (Octet RED96), hIL-18Rα ECD-Fc on Protein A sensor
MEASURED_ATTRIBUTE: koff

binder="IL-18 variant polypeptide M9 (ligand) YFPKLRSKLSVIRNLNDQVLFIDQGNRPLFEDMTDSDCRDNAPRTIFIISMYKWSRARGMAVTISVKCEKISTLSCENKIISFKEMNPPDSIKDTKSDIIFFQSSVPGHDNKMQFESSSYEGYFLACEKERDLFKLILKKEDELGDRSIMFTVQNED" measured_attribute=koff reported="0.0108 s⁻¹"
binder="IL-18 variant polypeptide M19 (ligand) YFPKLKSKLSVIRNLNDQVLFIDQGNRPLFEDMTDSDCRDNAPRTIFIISMYKHSEQRGMAVTISVKCEKISTLSCENKIISFKEMNPPDAIKDTKSDIIFFQRSVPGHDNKMQFESSSYEGYFLACEKERDLFKLILKKEDELGDRSIMFTVQNED" measured_attribute=koff reported="0.0554 s⁻¹"
binder="IL-18 variant polypeptide M1 (ligand) YFPKLKSKLSVIRNLNDQVLFIDQGNRPLFEDMTDSDCRDNAPRTIFIISMYKHSDRRGMAVTISVKCEKISTLSCENKIISFKEMNPPDVIKDTKSDIIFFQVSVPGHDNKMQFESSSYEGYFLACEKERDLFKLILKKEDELGDRSIMFTVQNED" measured_attribute=koff reported="0.111 s⁻¹"
binder="IL-18 variant polypeptide M2 (ligand) YFSKLKSKLSVIRNLNDQVLFIDQGNRPLFEDMTDSDCRDNAPRTIFIISMYKWSPDRGMAVTISVKCEKISTLSCENKIISFKEMNPPDGIKDTKSDIIFFQTSVPGHDNKMQFESSSYEGYFLACEKERDLFKLILKKEDELGDRSIMFTVQNED" measured_attribute=koff reported="0.0499 s⁻¹"
